target: full length recombinant Pim-2 protein (Homo sapiens, UniProt Q9P1W9); construct: by full length recombinant Pim-1, Pim-2, or Pim-3 protein; hexahistidine tag followed by a thrombin cleavage site (N); made in house; host or cells: Sf9 (baculovirus) or E. coli (pET28); test: Pim-2 enzyme assay (HTRF, phosphorylation of biotinylated-BAD (S112) peptide); type: biochemical; conditions: read-out: Pim2_IC50
Sequence (Q9P1W9 whole entry): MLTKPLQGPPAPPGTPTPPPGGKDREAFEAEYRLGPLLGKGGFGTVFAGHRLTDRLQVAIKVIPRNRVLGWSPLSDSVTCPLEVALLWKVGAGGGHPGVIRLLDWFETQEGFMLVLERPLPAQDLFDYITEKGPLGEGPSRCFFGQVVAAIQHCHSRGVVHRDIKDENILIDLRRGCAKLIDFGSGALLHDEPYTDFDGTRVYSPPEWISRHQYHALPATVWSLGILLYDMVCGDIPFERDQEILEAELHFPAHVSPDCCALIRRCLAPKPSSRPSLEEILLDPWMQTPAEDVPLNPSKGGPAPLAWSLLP
# note: boundary value 100 nM maps to NOT MET; IC50 below it maps to MET

1. CC(=O)Nc1cc(-c2ccc3[nH]cc(-c4cncc(O[C@@H]5CCCNC5)n4)c3c2)cc(C(F)(F)F)c1: NOT MET
2. CC(CO)c1ccc2c(c1)c(-c1cncc(O[C@H]3CNCCC34CC4)n1)nn2C (stereo partly drawn): NOT MET
3. O=C(NC1CC1)c1ccc(F)c(-c2ccc3[nH]nc(-c4cncc(OCCF)n4)c3c2)c1: NOT MET
4. CC1CCCN(c2cnc(-c3ccc4[nH]cc(-c5cncc(O[C@@H]6CCCNC6)n5)c4c3)cn2)C1 (mixture of isomers): MET
5. c1cc(-c2ccc3[nH]nc(-c4cncc(O[C@@H]5CCCNC5)n4)c3c2)nc(NC2CC2)n1: NOT MET
6. c1cc2[nH]nc(-c3cncc(O[C@@H]4CNCCC45CC5)n3)c2cc1N1CCOCC1: NOT MET
7. NC1CCN(c2nc(-c3c[nH]c4ccc(-c5c(F)cccc5F)cc34)cc(=O)[nH]2)CC1: MET
8. COc1cncc(-c2n[nH]c3ccc(-c4cncc(C5CC5)n4)cc23)n1: MET

Now examine the next entry.
Prompt: # TODO verify IC50 < 100 nM strictly for this compound: CC(O)c1cccc(-c2ccc3[nH]cc(-c4cncc(O[C@@H]5CCCNC5)n4)c3c2)c1 (mixture of isomers)
Completion: MET

* * *

biological target: full length recombinant Pim-3 protein (Homo sapiens, UniProt Q86V86); construct: by full length recombinant Pim-1, Pim-2, or Pim-3 protein; experiment: Pim-3 enzyme assay (HTRF, phosphorylation of biotinylated-BAD (S112) peptide); details: read-out: Pim3 IC50
Readings of pIC50 for the listed compounds
Quick note: pIC50 means taking -log10 of the concentration in moles per liter.

Below are worked cases with known answers.
1. C1=C(c2ccc3[nH]nc(-c4cncc(O[C@@H]5CCCNC5)n4)c3c2)COCC1 [Example 154]: 7.80
2. CC(C)(C)Nc1cncc(-c2n[nH]c3ccc(-c4c(F)cccc4F)cc23)n1 [Example 183]: 7.36

Prompt: Form field: reported pIC50 of COc1cc(-c2ccc3[nH]nc(-c4cncc(N5CCC(N)CC5)n4)c3c2)c(F)cn1 [Example 70]
Completion: 8.40

Prompt: Form field: reported pIC50 of NC1CCN(c2cncc(-c3n[nH]c4ccc(-c5c(F)cccc5F)cc34)c2)CC1 [Example 35]
Completion: 6.98

Prompt: Form field: reported pIC50 of CCNc1cncc(-c2n[nH]c3ccc(-c4c(F)cccc4F)cc23)n1 [Example 180]
Completion: 7.09

* * *

Readings of IC50 for the listed compounds
molecular target: full length recombinant Pim-1 protein (Homo sapiens); construct: by full length recombinant Pim-1, Pim-2, or Pim-3 protein; hexahistidine tag followed by a thrombin cleavage site (N); made in house; host or cells: Sf9 (baculovirus) or E. coli (pET28); assay: Pim-1 enzyme assay (HTRF, phosphorylation of biotinylated-BAD (S112) peptide); type: biochemical; conditions: enzyme assay, Pim-1; read-out: Pim_1_IC50
Sequence (P11309 whole entry): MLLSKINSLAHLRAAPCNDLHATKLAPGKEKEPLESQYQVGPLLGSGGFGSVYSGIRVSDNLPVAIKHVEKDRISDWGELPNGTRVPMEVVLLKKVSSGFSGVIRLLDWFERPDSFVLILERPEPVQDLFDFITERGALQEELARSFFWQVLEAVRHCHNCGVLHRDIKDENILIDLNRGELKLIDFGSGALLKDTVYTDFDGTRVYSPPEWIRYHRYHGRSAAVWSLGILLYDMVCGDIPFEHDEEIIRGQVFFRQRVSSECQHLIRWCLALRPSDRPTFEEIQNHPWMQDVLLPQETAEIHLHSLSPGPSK
API: value field is a number in nM; no unit string.

Below are worked cases with known answers.
1) Fc1cccc(F)c1-c1ccc2[nH]cc(-c3nccc(N[C@@H]4CCCNC4)n3)c2c1: 18
2) N#Cc1ccc2c(-c3ccc4[nH]nc(-c5cncc(N6CCC(N)CC6)n5)c4c3)ccnc2c1: 32
3) COc1cccc(-c2ccc3[nH]nc(-c4cncc(O[C@@H]5CCCNC5)n4)c3c2)c1F: 2
4) NC1CCN(c2cncc(-c3n[nH]c4ccc(-c5cccc(O)c5)cc34)n2)CC1: 2
5) Cc1ccnc(-c2c[nH]c3ccc(-c4cncc(OC(C)C)n4)cc23)c1: 601
6) NC1CCN(c2cncc(-c3n[nH]c4ccc(Br)cc34)n2)CC1: 31
7) CC(C)Oc1cncc(-c2ccc3[nH]cc(-c4ccnc(N)c4)c3c2)n1: 32
8) NC1CCN(c2cncc(-c3n[nH]c4ccc(-c5cn6ccnc6cn5)cc34)n2)CC1: 3

Prompt: Form field: reported IC50 of CC(C)Oc1cccc(-c2ccc3[nH]nc(-c4cncc(N5CCC(N)CC5)n4)c3c2)n1
Completion: 20

Prompt: Form field: reported IC50 of NC1CCN(c2cncc(-c3n[nH]c4ccc(-c5ccccc5)cc34)n2)CC1
Completion: 7

Prompt: Form field: reported IC50 of COc1nccc(-c2ccc3[nH]nc(-c4cncc(O[C@@H]5CCCNC5)n4)c3c2)n1
Completion: 7

Prompt: Form field: reported IC50 of Cn1ccc2cc(-c3ccc4[nH]nc(-c5cncc(N6CCC(N)CC6)n5)c4c3)ccc2c1=O
Completion: 7

Prompt: Form field: reported IC50 of CN(c1cncc(-c2n[nH]c3ccc(-c4c(F)cccc4F)cc23)n1)C1CCNCC1
Completion: 5

Prompt: Form field: reported IC50 of NC1CCN(c2cncc(-c3n[nH]c4ccc(-c5cccnc5O)cc34)n2)CC1
Completion: 20
